biological target: Histamine H2 receptor (Homo sapiens, UniProt P25021); assay: Displacement of [3H]Cimetidine from human H2 receptor expressed in HEK cells by radioligand binding assay; format: cell-based; conditions: read-out: Ki
Sequence (P25021 whole entry): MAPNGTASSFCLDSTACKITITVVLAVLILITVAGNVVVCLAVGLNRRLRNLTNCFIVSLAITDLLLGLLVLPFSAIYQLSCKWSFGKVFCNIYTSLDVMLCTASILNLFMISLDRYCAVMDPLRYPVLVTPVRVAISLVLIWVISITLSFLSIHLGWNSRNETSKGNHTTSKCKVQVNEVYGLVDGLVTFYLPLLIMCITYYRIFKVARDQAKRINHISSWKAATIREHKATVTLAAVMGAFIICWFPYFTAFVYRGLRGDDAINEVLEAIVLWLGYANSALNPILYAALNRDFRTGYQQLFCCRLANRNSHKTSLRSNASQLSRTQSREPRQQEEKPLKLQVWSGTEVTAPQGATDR
Form field: pKi (one value per entry).
Units for pKi: none; it is -log10 of a concentration expressed in mol/L.

### Prompt Request the reported pKi associated with OC1(c2ccc(Cl)c(C(F)(F)F)c2)CCN(CCCC=C(c2ccc(F)cc2)c2ccc(F)cc2)CC1
### Response 6.28

### Prompt Also need OC1(c2ccc(Cl)c(C(F)(F)F)c2)CCN(CCCCCc2ccc(F)cc2)CC1 , thanks.
### Response 6.40

### Prompt Then what about the compound OC1(c2ccc(Cl)c(C(F)(F)F)c2)CCN(CCCC(c2ccccc2)c2ccccc2)CC1 ?
### Response 6.56

### Prompt How about this compound: OC1(c2ccc(Cl)c(C(F)(F)F)c2)CCN(CCCN(c2ccc(F)cc2)c2ccc(F)cc2)CC1
### Response 6.60

### Prompt One more compound: OC1(c2ccc(Cl)c(C(F)(F)F)c2)CCN(CCCCC(c2ccc(F)cc2)c2ccc(F)cc2)CC1
### Response 6.26

====

biological target: 5-hydroxytryptamine receptor 2B (Homo sapiens); experiment: Displacement of [3H]LSD from human 5-HT2B receptor expressed in HEK cells by radioligand binding assay relative to control; format: cell-based; set-up: concentration or dose not given beside the values; conditions: concentration not given here
Sequence (P41595 whole entry): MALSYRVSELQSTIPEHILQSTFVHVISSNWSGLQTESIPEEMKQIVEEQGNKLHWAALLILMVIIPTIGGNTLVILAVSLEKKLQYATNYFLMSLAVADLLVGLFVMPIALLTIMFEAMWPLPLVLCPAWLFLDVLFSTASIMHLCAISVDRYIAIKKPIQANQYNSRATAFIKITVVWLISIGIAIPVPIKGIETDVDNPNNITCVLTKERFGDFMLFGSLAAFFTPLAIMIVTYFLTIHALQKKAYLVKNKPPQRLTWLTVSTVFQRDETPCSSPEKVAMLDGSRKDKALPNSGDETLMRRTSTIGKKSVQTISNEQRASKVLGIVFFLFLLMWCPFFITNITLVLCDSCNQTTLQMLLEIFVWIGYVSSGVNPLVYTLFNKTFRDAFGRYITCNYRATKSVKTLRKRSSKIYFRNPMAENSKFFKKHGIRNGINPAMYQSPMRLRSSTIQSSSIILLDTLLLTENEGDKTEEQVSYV
MEASURED_ENDPOINT: inhibition (%)
Expressed in %, but write only the number.

COMPOUND	TARGET_ENTITY	MEASURED_ENDPOINT	REPORTED
OC1(c2ccc(Cl)c(C(F)(F)F)c2)CCN(CCCN(c2ccc(F)cc2)c2ccc(F)cc2)CC1	5-hydroxytryptamine receptor 2B (Homo sapiens)	inhibition	95.5

### Prompt Form entry - test system: 5-hydroxytryptamine receptor 2B (Homo sapiens); read-out: inhibition; compound: OC1(c2ccc(Cl)c(C(F)(F)F)c2)CCN(CCCC(c2ccccc2)c2ccccc2)CC1
### Response 92.5

### Prompt Check OC1(c2ccc(Cl)c(C(F)(F)F)c2)CCN(CCCCN(c2ccc(F)cc2)c2ccc(F)cc2)CC1 too.
### Response 82.4

### Prompt Ok, now COc1ccc(N(CCCCN2CCC(O)(c3ccc(Cl)c(C(F)(F)F)c3)CC2)c2ccc(OC)cc2)cc1
### Response 77.5

### Prompt Again, but for OC1(c2ccc(Cl)c(C(F)(F)F)c2)CCN(CCCCC(c2ccc(F)cc2)c2ccc(F)cc2)CC1
### Response 93.3

### Prompt Thanks! And OC1(c2ccc(Cl)c(C(F)(F)F)c2)CCN(CCCC=C(c2ccc(F)cc2)c2ccc(F)cc2)CC1 ?
### Response 91.8

### Prompt Now consider OC1(c2ccc(Cl)c(C(F)(F)F)c2)CCN(CCCC(c2ccc(F)cc2)c2ccc(F)cc2)CC1 [PENFLURIDOL] and answer again.
### Response 97.3

====

Entries and their measured inhibition follow.
Biological target: 5-hydroxytryptamine receptor 1A (Homo sapiens)
Sequence (whole entry): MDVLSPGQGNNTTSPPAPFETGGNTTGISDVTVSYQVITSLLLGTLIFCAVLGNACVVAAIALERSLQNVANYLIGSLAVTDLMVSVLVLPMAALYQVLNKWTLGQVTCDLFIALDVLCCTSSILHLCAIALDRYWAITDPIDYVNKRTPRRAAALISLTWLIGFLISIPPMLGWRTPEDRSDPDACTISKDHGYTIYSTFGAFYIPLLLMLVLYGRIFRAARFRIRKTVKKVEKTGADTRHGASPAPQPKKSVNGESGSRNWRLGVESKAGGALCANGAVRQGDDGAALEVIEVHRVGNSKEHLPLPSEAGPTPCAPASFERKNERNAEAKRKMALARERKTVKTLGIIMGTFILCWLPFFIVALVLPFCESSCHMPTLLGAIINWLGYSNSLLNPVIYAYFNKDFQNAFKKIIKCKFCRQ
Test: Displacement of [3H]-Way100635 from human 5HT1A receptor expressed in stable CHO cell membranes by radioligand binding assay relative to control
Set-up: concentration or dose not given beside the values
Details: concentration not given here
Record the value in %, omitting the unit from your answer.

SMILES_STRING	TARGET_ENTITY	inhibition [%]
OC1(c2ccc(Cl)c(C(F)(F)F)c2)CCN(CCCC=C(c2ccc(F)cc2)c2ccc(F)cc2)CC1	5-hydroxytryptamine receptor 1A (Homo sapiens)	71.2

### Prompt Requested read-out: inhibition. Entry: COc1ccc(N(CCCCN2CCC(O)(c3ccc(Cl)c(C(F)(F)F)c3)CC2)c2ccc(OC)cc2)cc1
### Response 57.3

### Prompt Continue with OC1(c2ccc(Cl)c(C(F)(F)F)c2)CCN(CCCCCc2ccc(F)cc2)CC1
### Response 77.2

### Prompt Ok, now OC1(c2ccc(Cl)c(C(F)(F)F)c2)CCN(CCCCC(c2ccc(F)cc2)c2ccc(F)cc2)CC1
### Response 85

Data credit: ChEMBL document CHEMBL4257579
